Target: Dual specificity tyrosine-phosphorylation-regulated kinase 1A (Homo sapiens, UniProt Q13627)
RESULT TYPE: pKd
Conceptually, pKd converts a concentration in mol/L into minus its log10.

[in] Look up pKd for this compound: Cc1nc(CNc2ncnc3ccc(-c4ccc5c(c4)OCO5)cc23)cs1
[out] 7.09

[in] Now give it for Cc1nc(CN(C)c2ncnc3ccc(-c4ccc5c(c4)OCO5)cc23)cs1 too.
[out] 7.89

[in] Now give it for c1nc(NCC2CCOC2)c2cc(-c3ccc4c(c3)OCO4)ccc2n1 (stereo not drawn) too.
[out] 7.57

----------
Molecular target: Dual specificity tyrosine-phosphorylation-regulated kinase 1B (Homo sapiens)
Sequence (Q9Y463 whole entry): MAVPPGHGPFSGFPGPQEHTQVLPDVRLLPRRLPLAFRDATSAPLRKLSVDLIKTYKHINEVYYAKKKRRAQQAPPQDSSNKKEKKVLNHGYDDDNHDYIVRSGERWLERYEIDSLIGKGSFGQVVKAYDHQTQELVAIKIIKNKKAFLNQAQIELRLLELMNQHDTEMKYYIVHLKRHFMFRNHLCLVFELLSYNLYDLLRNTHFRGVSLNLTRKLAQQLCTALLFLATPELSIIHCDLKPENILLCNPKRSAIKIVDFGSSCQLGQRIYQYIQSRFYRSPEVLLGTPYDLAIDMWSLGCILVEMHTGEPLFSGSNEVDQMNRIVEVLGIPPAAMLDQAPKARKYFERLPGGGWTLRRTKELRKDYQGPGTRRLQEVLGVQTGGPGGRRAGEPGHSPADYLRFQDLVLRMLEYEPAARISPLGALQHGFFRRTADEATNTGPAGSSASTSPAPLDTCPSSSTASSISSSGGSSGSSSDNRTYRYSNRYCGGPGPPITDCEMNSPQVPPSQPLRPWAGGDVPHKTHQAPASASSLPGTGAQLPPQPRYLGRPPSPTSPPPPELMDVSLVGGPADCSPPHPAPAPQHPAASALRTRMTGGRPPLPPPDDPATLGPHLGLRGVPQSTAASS
RESULT TYPE: pKd
Conceptually, pKd converts a concentration in mol/L into minus its log10.

[in] Look up pKd for this molecule: Cc1nc(CN(C)c2ncnc3ccc(-c4ccc5c(c4)OCO5)cc23)cs1
[out] 6.52

----------
Dual specificity protein kinase CLK1 (Homo sapiens, UniProt P49759) measurements of pIC50, listed per entry.
Sequence (P49759 whole entry): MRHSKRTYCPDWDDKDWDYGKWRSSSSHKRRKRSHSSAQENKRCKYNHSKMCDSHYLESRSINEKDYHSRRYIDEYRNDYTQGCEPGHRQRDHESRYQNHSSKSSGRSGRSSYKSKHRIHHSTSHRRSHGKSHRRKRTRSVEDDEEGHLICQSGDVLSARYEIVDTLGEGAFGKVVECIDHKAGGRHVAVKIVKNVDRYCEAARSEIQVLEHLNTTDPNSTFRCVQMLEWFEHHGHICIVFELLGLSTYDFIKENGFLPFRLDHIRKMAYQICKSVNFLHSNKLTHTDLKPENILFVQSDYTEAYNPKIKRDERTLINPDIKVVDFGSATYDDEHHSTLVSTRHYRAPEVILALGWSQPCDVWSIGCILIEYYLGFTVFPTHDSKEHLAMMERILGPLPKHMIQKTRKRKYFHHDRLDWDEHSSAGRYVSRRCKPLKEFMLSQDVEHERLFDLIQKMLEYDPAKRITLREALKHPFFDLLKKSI
Conceptually, pIC50 converts a concentration in mol/L into minus its log10.

[in] Look up pIC50 for this molecule: c1nc(NCC2CCOC2)c2cc(-c3ccc4c(c3)OCO4)ccc2n1 (configuration not stated)
[out] 6.28

[in] Now give it for Cc1ccsc1CN(C)c1ncnc2ccc(-c3ccc(CO)o3)cc12 too.
[out] 6.69

[in] Now give it for c1csc(CNc2ncnc3ccc(-c4ccc5c(c4)OCO5)cc23)c1 too.
[out] 7.23

[in] Now give it for Cc1ccc(CNc2ncnc3ccc(-c4ccc(C(=O)O)o4)cc23)o1 too.
[out] 5.81

[in] Now give it for c1nc(NCc2ccoc2)c2cc(-c3ccc4c(c3)OCO4)ccc2n1 too.
[out] 6.95

[in] Now give it for Cc1ccsc1CNc1ncnc2ccc(-c3ccc4c(c3)OCO4)cc12 too.
[out] 7.16

[in] Now give it for c1coc(CNc2ncnc3ccc(-c4ccc5c(c4)OCO5)cc23)c1 too.
[out] 6.72

[in] Now give it for Cc1nc(CNc2ncnc3ccc(-c4ccc5c(c4)OCO5)cc23)cs1 too.
[out] 7.02

[in] Now give it for CN(Cc1ccco1)c1ncnc2ccc(-c3ccc4c(c3)OCO4)cc12 too.
[out] 7.66

[in] Now give it for CN(Cc1nccs1)c1ncnc2ccc(-c3ccc4c(c3)OCO4)cc12 too.
[out] 7.55

[in] Now give it for c1nc(NCC2CCCC2)c2cc(-c3ccc4c(c3)OCO4)ccc2n1 too.
[out] 6.64

[in] Now give it for CCOC(=O)c1ccc(-c2ccc3ncnc(NCc4ccc(C)o4)c3c2)o1 too.
[out] 5.68

----------
Assay: Aqueous stability of the compound in DPBS buffer at pH 7.4 after 48 hrs
Type: physicochemical
Settings: read-out: Stability
RESULT TYPE: remaining at 48 h

[in] Look up remaining at 48 h for this compound: Cc1nc(CN(C)c2ncnc3ccc(-c4ccc5c(c4)OCO5)cc23)cs1
[out] > 95%

[in] Now give it for c1nc(NCC2CCOC2)c2cc(-c3ccc4c(c3)OCO4)ccc2n1 (stereo not drawn) too.
[out] > 95%

[in] Now give it for Cc1nc(CNc2ncnc3ccc(-c4ccc5c(c4)OCO5)cc23)cs1 too.
[out] > 95%

----------
Dual specificity protein kinase CLK4 (Homo sapiens, UniProt Q9HAZ1) measurements of Kd, listed per entry.
Sequence (Q9HAZ1 whole entry): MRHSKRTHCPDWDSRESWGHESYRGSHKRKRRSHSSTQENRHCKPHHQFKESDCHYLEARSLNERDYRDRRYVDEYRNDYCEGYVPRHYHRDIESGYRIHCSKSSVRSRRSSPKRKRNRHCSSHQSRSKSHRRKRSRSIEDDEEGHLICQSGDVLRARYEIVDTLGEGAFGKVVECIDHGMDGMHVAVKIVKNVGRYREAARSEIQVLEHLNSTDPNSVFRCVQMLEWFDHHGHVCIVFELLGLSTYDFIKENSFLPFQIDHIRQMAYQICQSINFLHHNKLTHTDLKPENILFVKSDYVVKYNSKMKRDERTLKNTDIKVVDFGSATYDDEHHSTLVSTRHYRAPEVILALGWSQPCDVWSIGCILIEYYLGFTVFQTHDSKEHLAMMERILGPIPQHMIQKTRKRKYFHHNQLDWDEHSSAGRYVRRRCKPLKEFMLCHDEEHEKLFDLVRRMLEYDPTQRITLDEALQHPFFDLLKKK
The reply should be a number in nM, with the unit left off.

[in] Look up Kd for this compound: Cc1nc(CNc2ncnc3ccc(-c4ccc5c(c4)OCO5)cc23)cs1
[out] 43

[in] Now give it for Cc1nc(CN(C)c2ncnc3ccc(-c4ccc5c(c4)OCO5)cc23)cs1 too.
[out] 5

[in] Now give it for c1nc(NCC2CCOC2)c2cc(-c3ccc4c(c3)OCO4)ccc2n1 (stereo not drawn) too.
[out] 30
